testDetails: qHTS assay for identifying genotoxic compounds that show differential cytotoxicity against isogenic chicken DT40 cell lines with known DNA damage response pathways - Rev3 mutant cell line (AID 743014); further: nearly all actives have a fitted effect of over 55% in size
reportedConditions: chicken DT40 Rev3-/- viability, CellTiter-Glo, 40 h; series mostly up to 68.4 µM
Inconclusive results are not listed. Calls of active or inactive are those of the source. The call rests on the fitted dose curve; in most records, active means well fitted cell-killing curve with a large enough effect in the repeat runs; inconclusive means weak or mixed curves, or effect the other way; inactive means no such curve, though single readings can be large or run the other way.
quantityMeasured: outcome

INSERT INTO measurements (substancesmiles, result) VALUES
  ('C=COCCOCCOCCOC=C', 'inactive'),
  ('CC(C)(C)NC(N)=O', 'inactive'),
  ('CC1=C(C(=O)O)N2C(=O)[C@@H](NC(=O)[C@H](N)c3ccc(O)cc3)[C@H]2SC1', 'inactive');

----------
testDetails: qHTS assay to identify small molecule agonists of the estrogen receptor alpha (ER-alpha) signaling pathway in the presence of an antagonist - cell viability counter screen (AID 1259386);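 further: cells exposed to compounds for 22 h at 37 °C before the viability read; nearly all actives have a fitted effect of over 30% in size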
reportedConditions: VM7Luc4E2 viability, CellTiter-Fluor fluorescence, 22 h; series mostly up to 92.4 µM
Records with an inconclusive call do not appear. Calls of active or inactive are those of the source. The call rests on the fitted dose curve; in most records, active means well fitted cell-killing curve with a large enough effect in the repeat runs; inconclusive means weak or mixed curves, or effect the other way; inactive means no such curve, though single readings can be large or run the other way.
quantityMeasured: activity change, negative = cytotoxicity

Would you please look over these solved cases?
INSERT INTO measurements (compound, quantitymeasured, result) VALUES
  ('CCOC(=O)CC(=O)c1ccccc1', 'activity change, negative = cytotoxicity', 'inactive'),
  ('CC(=O)NCc1c(I)c(NC(C)=O)c(I)c(C(=O)O)c1I', 'activity change, negative = cytotoxicity', 'inactive'),
  ('CC(C)(C)c1nnc(NS(=O)(=O)c2ccc(N)cc2)s1', 'activity change, negative = cytotoxicity', 'inactive'),
  ('CCCCOC(=O)c1ccccc1', 'activity change, negative = cytotoxicity', 'inactive'),
  ('CC(C)OC(=O)CCCCC(=O)OC(C)C', 'activity change, negative = cytotoxicity', 'inactive');

Qu. Can you look up the measured activity change, negative = cytotoxicity of `CCCCCCN` for me?
Ans. inactive

Qu. Queued: `O=P(O)(O)OP(=O)(O)O`
Ans. inactive

Qu. Queued: CCNC(=O)C1CC(C)CCC1C(C)C (stereo not drawn)
Ans. inactive

Qu. Queued: `CCCC/C=C\CCCCCCCCCC=O`
Ans. inactive

Qu. Queued: `Nc1nnc(-c2cccc(Cl)c2Cl)c(N)n1`
Ans. inactive

Qu. Queued: `NS(=O)(=O)c1cc2c(cc1Cl)CN(C1CCCCC1)C2=O`
Ans. inactive

Qu. Queued: `NCCS`
Ans. inactive

----------
testDetails: qHTS assay to identify small molecule that activate the aryl hydrocarbon receptor (AhR) signaling pathway - cell viability counter screen (AID 743086);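 further: HepG2 liver cells carrying the AhR DRE luciferase reporter; nearly all actives have a fitted effect of over 45% in size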
reportedConditions: HepG2-AhR-luc viability, CellTiter-Fluor, 24 h; series mostly up to 70.3 µM
Excerpt: U.S. Tox21 Program National Center for Advancing Translational Sciences [NCATS] NIH Chemical Genomics Center [NCGC] U.S. Environmental Protection Agency [EPA] National Institutes of Environmental Health Sciences [NIEHS] National Toxicology Program [NTP] U.S. Food and Drug Administration [FDA] Tox21 Assay overview: The Aryl hydrocarbon Receptor (AhR), a member of the family of basic helix-loop-helix transcription factors, is crucial to adaptive responses to environmental changes. […]
Results filed as inconclusive are left out. Active and inactive are the calls of the source. The call rests on the fitted dose curve; in most records, active means well fitted cell-killing curve with a large enough effect in the repeat runs; inconclusive means weak or mixed curves, or effect the other way; inactive means flat fitted curve, though single readings scatter.
quantityMeasured: outcome

INSERT INTO assay_data (molecule, result) VALUES
  ('CC(C)C[C@H](NC(=O)CNC(=O)[C@H](Cc1ccc(O)cc1)NC(=O)[C@H](CO)NC(=O)[C@H](Cc1c[nH]c2ccccc12)NC(=O)[C@H](Cc1cnc[nH]1)NC(=O)[C@@H]1CCC(=O)N1)C(=O)N[C@@H](CCCN=C(N)N)C(=O)N1CCC[C@H]1C(=O)NCC(N)=O (stereo in doubt)', 'inactive'),
  ('O=S(=O)(O)CCN1CCN(CCO)CC1', 'inactive'),
  ('O=P(O)(O)OP(=O)(O)O', 'inactive'),
  ('CC(=O)CCCCn1c(=O)c2c(ncn2C)n(C)c1=O', 'inactive');

Qu. Can you look up the measured outcome of `COc1cc2c(cc1OC)[C@@H]1CC(=O)[C@@H](CC(C)C)CN1CC2` for me?
Ans. inactive

Qu. Queued: `O=C(O)c1cc(Br)c(O)c(Br)c1`
Ans. inactive

Qu. Queued: Cc1cccc(C)c1OCC(C)N (stereo not drawn)
Ans. inactive

Qu. Queued: `O=C(OCC(COC(=O)c1cccnc1)(COC(=O)c1cccnc1)COC(=O)c1cccnc1)c1cccnc1`
Ans. inactive

Qu. Queued: `CCCC/C=C/C=C\C=O`
Ans. inactive

Qu. Queued: `CC/C=C\CC1=C(C)CCC1=O`
Ans. inactive

Qu. Queued: `O=C(OCC1(COC(=O)c2cccnc2)CCCC(COC(=O)c2cccnc2)(COC(=O)c2cccnc2)C1O)c1cccnc1`
Ans. inactive

Qu. Queued: `CCCOC(OCCC)OCCC`
Ans. inactive

Qu. Queued: `COCCOCCOCCOCCO`
Ans. inactive

Qu. Queued: `CC(=O)Nc1ccc(S(=O)(=O)Cl)cc1`
Ans. inactive

Qu. Queued: `CCCCOC(=O)c1ccccc1`
Ans. inactive

----------
subjectOfTest: Cytochrome P450 2C9 (Homo sapiens)
testDetails: Cytochrome P450 Family 2 Subfamily C Member 9 (CYP2C9) small molecule antagonists: luciferase reporter qHTS assay (AID 1671198); further: nearly all actives have a fitted effect of over 50% in size
reportedConditions: P450-Glo CYP2C9 enzyme assay, luciferin luminescence; series mostly up to 115 µM
Results filed as inconclusive are left out. Calls of active or inactive are those of the source. The call rests on the fitted dose curve; in most records, active means well fitted inhibition curve with a large enough effect in the repeat runs; inconclusive means weak or mixed curves; inactive means no such curve, though single readings can be large or run the other way.
Answer with one of the outcomes active, inactive

Qu. Which outcome did this test record for the compound `CCn1ccc(NS(=O)(=O)c2ccc(N)cc2)nc1=O` ?
Ans. inactive

Qu. Queued: `O=C(CCNNC(=O)c1ccncc1)NCc1ccccc1`
Ans. active

Qu. Queued: `OC[C@H](Cc1cccc(O)c1)[C@H](CO)Cc1cccc(O)c1`
Ans. active

Qu. Queued: `Cc1cc2cc3c(C)cc(=O)oc3c(C)c2o1`
Ans. inactive

Qu. Queued: CCC(C)(CCC(C)C)C(=O)O (stereo unspecified)
Ans. active

Qu. Queued: `OCCC(F)(F)C(F)(F)C(F)(F)C(F)(F)C(F)(F)C(F)(F)C(F)(F)C(F)(F)F`
Ans. inactive

----------
testDetails: qHTS assay to identify small molecule that activate the aryl hydrocarbon receptor (AhR) signaling pathway - cell viability counter screen (AID 743086);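 further: HepG2 liver cells carrying the AhR DRE luciferase reporter; nearly all actives have a fitted effect of over 45% in size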
reportedConditions: HepG2-AhR-luc viability, CellTiter-Fluor, 24 h; series mostly up to 70.3 µM
Results filed as inconclusive are left out. Active and inactive are the calls of the source. The call rests on the fitted dose curve; in most records, active means well fitted cell-killing curve with a large enough effect in the repeat runs; inconclusive means weak or mixed curves, or effect the other way; inactive means flat fitted curve, though single readings scatter.
quantityMeasured: outcome

INSERT INTO assay_data (substancesmiles, quantitymeasured, result) VALUES
  ('COc1ccc(-c2cc(=O)c3c(O)cc(O[C@@H]4O[C@H](CO[C@@H]5O[C@@H](C)[C@H](O)[C@@H](O)[C@H]5O)[C@@H](O)[C@H](O)[C@H]4O)cc3o2)cc1O', 'outcome', 'inactive'),
  ('C[C@@H](O)[C@H]1C(=O)N2C(C(=O)O)=C(SCCN=CN)C[C@H]12', 'outcome', 'inactive'),
  ('Cc1cc(Cl)c(C)cc1Cl', 'outcome', 'inactive'),
  ('C=C(C)C(=O)OCC(C)(C)COC(=O)C(=C)C', 'outcome', 'inactive');

Now for another entry.
Qu. Can you look up the measured outcome of `CC(=O)N[C@@H](CCC(=O)O)C(=O)O` for me?
Ans. inactive

----------
subjectOfTest: Thyrotropin receptor (Homo sapiens)
testDetails: qHTS assay to identify small molecule agonists of the thyroid stimulating hormone receptor (TSHR) signaling pathway (AID 1224843); further: nearly all actives have a fitted effect of over 45% in size
reportedConditions: TSHR-HEK293 cells, cAMP HTRF, agonist mode, 30 min; series mostly up to 92.4 µM
Records with an inconclusive call do not appear. The source made the active and inactive calls. Calls come from the whole dose curve.
quantityMeasured: activation

Would you please look over these solved cases?
INSERT INTO measurements (compound, subjectoftest, result) VALUES
  ('O=S(=O)(O)c1ccc2cc(O)c(S(=O)(=O)O)cc2c1', 'Thyrotropin receptor (Homo sapiens)', 'inactive'),
  ('O=P(O)(O)OP(=O)(O)O', 'Thyrotropin receptor (Homo sapiens)', 'inactive'),
  ('C[Si](C)(C)C', 'Thyrotropin receptor (Homo sapiens)', 'inactive'),
  ('COc1cc2c(cc1OC)C(=O)CC2', 'Thyrotropin receptor (Homo sapiens)', 'inactive');

Qu. Can you look up the measured activation of `C=C(C)C(=O)OCCNC(C)(C)C` for me?
Ans. inactive

Qu. Queued: CC(CO)c1ccccc1 (centres undefined)
Ans. inactive

Qu. Queued: CC(CN)CC(C)(C)CCN (centres undefined)
Ans. inactive

----------
testDetails: qHTS assay for small molecules that induce genotoxicity in human embryonic kidney cells expressing luciferase-tagged ATAD5 - cell viability (AID 651634); further: nearly all actives have a fitted effect of over 25% in size
reportedConditions: HEK293T ATAD5-luc cells viability, CellTiter-Fluor, 15.5 h; series mostly up to 83.3 µM
Inconclusive results are not listed. Activity calls are given as the source filed them. The call rests on the fitted dose curve.
quantityMeasured: outcome

INSERT INTO measurements (compound, quantitymeasured, result) VALUES
  ('CCOc1cc(NC(C)=O)ccc1C(=O)OC', 'outcome', 'inactive'),
  ('NCCS', 'outcome', 'inactive'),
  ('CCCCOC(=O)c1ccccc1', 'outcome', 'inactive'),
  ('CCCCCCCCC(=O)Cl', 'outcome', 'inactive'),
  ('C[C@@H](O)[C@H]1C(=O)N2C(C(=O)O)=C(SCCN=CN)C[C@H]12', 'outcome', 'inactive'),
  ('O=C1c2ccccc2C(=O)C1c1ccccc1', 'outcome', 'inactive');

Qu. Can you look up the measured outcome of `O=S(=O)(O)c1cc(O)c2ccc(Nc3ccccc3)cc2c1` for me?
Ans. inactive

Qu. Queued: `O=C(Nc1ccc(Cl)c(Cl)c1)C1CC1`
Ans. inactive

Qu. Queued: `CCCC(=O)C(C)=O`
Ans. inactive

Qu. Queued: CCCCCCCCC1CCC(=O)O1 (centres undefined)
Ans. inactive

Qu. Queued: `Nc1ncnc(Nc2ccccc2)n1`
Ans. inactive
